Each recorded value in this set is attributed to PubChem BioAssay AID709.

test: intrinsic fluorescence of library compounds, ex339/em460 – biochemical, MLSMR library, data from DPM-DC assay, artefact control, profiling panel (AID 709); settings: compound autofluorescence, ex339/em460 nm, NADH buffer; at 10 µM; stronger effect = higher value; 1 = no-compound wells, NADH background;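 also: signal is the first read of a kinetic run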
The whole screen tested about 65,000 compounds, of which about 3,600 (5.5%) were called active. This is one part of a sample in which actives are shown more often than they occur.
fluorescence fold increase: recorded values
experimental-endpoint: fluorescence fold increase

structure-smiles-string | assay-value
CC(C)c1nc(N2CCOCC2)c(C#N)c2c1COC(C)(C)C2 | 2.28
CCOc1ccc2[nH]c(=O)c(CN(CCCO)C(C)=O)cc2c1 | 3.27
COc1cc(-c2nc(-c3ccncc3)no2)cc(OC)c1OC | 1.03
CCOC(=O)Cc1c(C)nc2c(C#N)c(C)nn2c1C | 3.62
CCC(=O)N(Cc1cc2cc(OC)ccc2[nH]c1=O)c1ccccc1C | 3.71
O=C(COc1ccc2oc3c(c2c1)CCCC3)Nc1ccccn1 | 1.06
COc1ccc(S(=O)(=O)N(CCCN2CCCC2=O)Cc2cc3c(C)ccc(C)c3[nH]c2=O)cc1 | 1.97
O=C(Oc1ccc(-c2nc(-c3ccccn3)no2)cc1)c1ccccc1 | 1.09
Cc1ccc(NC(=O)CCN2CCc3ccccc3C2)cc1 | 1.02
COc1ccc2[nH]c(=O)c(-c3noc(-c4ccc(F)cc4)n3)cc2c1 | 1.38
COc1ccc(N(Cc2cc3cc(OC)ccc3[nH]c2=O)S(C)(=O)=O)cc1 | 3
CC(C)CCNc1nc(N2CCCC2)c2c(c1C#N)CCN(C)C2 | 1.63
CC(=O)OCc1cc2cc(C)ccc2[nH]c1=O | 1.43
CCCCn1nnnc1NCc1cc(OC)c(OC)c(OC)c1 | 1.07
O=C(COc1ccc2c3c(c(=O)oc2c1)CCC3)NC1CCCCC1 | 2.13
